Where do these numbers come from? They come from PubChem BioAssay (NCI).

Listed next: entries and their corresponding growth.
- Test system: HS 578T breast
- assay-text: NCI-60 one-dose screen, 48 h (100 = growth as untreated, 0 = no growth, -100 = all killed)
- conditions: 10 µM unless noted
The panel holds about 83,000 compounds, 20% with a hit somewhere; the sample as a whole holds those more often.
Reply numerically in %, unit not repeated.

Look over these answered cases.
1. C=C1C(=O)O[C@H]2[C@H]1CC/C(CNC(=O)C(C)c1ccc(CC(C)C)cc1)=C\CC[C@@]1(C)O[C@@H]21 (stereo partly drawn) ... 25.4
2. O=C(Nc1ncc(Cc2cc(Cl)ccc2Cl)s1)c1cccs1 ... 74.3
3. O=C(Cn1c[n+](CC(=O)c2ccc(-c3ccccc3)cc2)c2ccccc21)Nc1cccc2cccnc12 ... 33.5
4. O=C(NNc1nc2c(F)cccc2n2cccc12)c1cnccn1 ... 77.3
5. NNC(=O)c1ccc(-n2nc(-c3ccccc3)c3ccccc32)cc1 ... 73

# get_value(readout='growth', item= O=[N+]([O-])c1ccc(N=Nc2cc(S(=O)(=O)O)c3cccc(S(=O)(=O)O)c3c2O)cc1 )
130

growth lookup needed for CN1CCN(c2ccc(NC3=C(Cl)C(=O)c4ncccc4C3=O)cc2C(F)(F)F)CC1 , thanks.
92.9

Looking for the measured growth of Nc1c(C(=O)Nc2ccnc3ccccc23)sc2nc3c(cc12)CN(Cc1ccccc1)CC3 , can you help?
89.9

Value lookup for growth; key = O=C(CSc1nc2ccccc2[nH]1)NCc1ccccc1
97.9

Recorded growth for O=C(Cc1ccccc1)NNc1nc(Cl)nc(N2CCN(C(c3ccccc3)c3ccccc3)CC2)n1 , please?
98.9

Return reported growth; argument: COC(=O)C(CC=O)C(=O)C(=O)Nc1cccc(C(F)(F)F)c1 (stereo not drawn)
90.6

Name the reported growth value associated with the molecule COC(=O)N[C@H]1CCc2c(Cl)c(OC)c(OC)c(OC)c2-c2ccc(SC)c(=O)cc21
9.58

May I ask what growth has been recorded for N#Cc1cc(-c2nc3ccccc3s2)c(=O)n(NS(=O)(=O)c2ccccc2)c1N ?
101
